test: rotarod test, rats; conditions: rat, in vivo, ip, i.p. administration, 15 min before test
Structures can show the parent of a compound that is named as a salt.
PARAMETER: TD50 at 15 min (mg/kg)
Answer with a number only, understood to be in mg/kg.

Read off the recorded TD50 at 15 min for NC(=O)CNC1Cc2ccccc2C1 [CHF 3381, N-2(indanyl)-glicinamide hydrochloride] 113

---

test: rotarod test, rats; conditions: rat, in vivo, oral administration, 15 min before test
Where a name gives a salt, the structure may show the parent alone.
PARAMETER: TD50 at 15 min
Record the result as a number with its unit.

Read off the recorded TD50 at 15 min for NC(=O)CNC1Cc2ccccc2C1 [CHF 3381, N-2(indanyl)-glicinamide hydrochloride] 299 mg/kg

Reference source for all entries: patent US20050222266A1
